Test system: A549
Test: Cytotoxicity against human A549 cells upto 10 uM after 72 hrs by SRB assay
Assay type: functional, cell-based
The source made the active and inactive calls. The calls are words filed in the database; no cut-off is given here.
measurement.label: Activity

>  <compound>
CC(C)(O)/C=C/C(=O)[C@](C)(O)[C@H]1[C@H](O)C[C@@]2(C)[C@@H]3CC=C4[C@@H](C[C@H](O[C@@H]5O[C@H](CO)[C@@H](O)[C@H](O)[C@H]5O)C(=O)C4(C)C)[C@]3(C)C(=O)C[C@]12C

>  <reported.measurement>
inactive

$$$$
>  <compound>
C/C(=C\C(O)C[C@](C)(O)[C@H]1[C@H](O)C[C@@]2(C)[C@@H]3CC=C4[C@@H](C[C@H](O)C(=O)C4(C)C)[C@]3(C)C(=O)C[C@]12C)CO (some centres not stated)

>  <reported.measurement>
inactive

$$$$
>  <compound>
CC(C)(O)/C=C/C(=O)[C@](C)(O)[C@H]1[C@H](O)C[C@@]2(C)[C@@H]3CC=C4[C@@H](C[C@H](O)C(=O)C4(C)C)[C@]3(CO)C(=O)C[C@]12C

>  <reported.measurement>
inactive

$$$$
>  <compound>
CC(=O)OC(C)(C)/C=C/C(=O)[C@](C)(O)[C@H]1[C@H](O)C[C@@]2(C)[C@@H]3CC=C4[C@@H](C[C@H](O[C@@H]5O[C@H](CO)[C@@H](O)[C@H](O)[C@H]5O)C(=O)C4(C)C)[C@]3(C)C(=O)C[C@]12C

>  <reported.measurement>
inactive

$$$$
>  <compound>
C/C(=C\[C@@H]1C[C@](C)(O)[C@H]2[C@@H](C[C@@]3(C)[C@@H]4[C@@H](O)C=C5[C@@H](C[C@H](O[C@@H]6O[C@H](CO)[C@@H](O)[C@H](O)[C@H]6O)[C@H](O)C5(C)C)[C@]4(C)C(=O)C[C@]23C)O1)CO

>  <reported.measurement>
inactive

$$$$
>  <compound>
CC(=O)OC(C)(C)CCC(=O)[C@](C)(O)[C@H]1[C@H](O)C[C@@]2(C)[C@@H]3[C@@H](O)C=C4[C@@H](C[C@H](O)C(=O)C4(C)C)[C@]3(C)C(=O)C[C@]12C

>  <reported.measurement>
inactive

$$$$

Okay, here is my list. What is Activity for each of these?
1. CC(C)(O)CCC(=O)[C@](C)(O)[C@H]1[C@H](O)C[C@@]2(C)[C@@H]3CC=C4[C@@H](CC(=O)[C@H](O)C4(C)C)[C@]3(C)C(=O)C[C@]12C
2. C/C(=C\[C@@H]1C[C@](C)(O)[C@H]2[C@@H](C[C@@]3(C)[C@@H]4[C@@H](O)C=C5[C@@H](C[C@H](O)[C@H](O)C5(C)C)[C@]4(C)C(=O)C[C@]23C)O1)CO
3. CC(=O)[C@H]1[C@H](O)C[C@@]2(C)[C@@H]3CC=C4[C@@H](C[C@H](O[C@@H]5O[C@H](CO)[C@@H](O)[C@H](O)[C@H]5O)C(=O)C4(C)C)[C@]3(C)C(=O)C[C@]12C
4. CC(=O)OC(C)(C)/C=C/C(=O)[C@](C)(O)[C@H]1[C@H](O)C[C@@]2(C)[C@@H]3CC=C4[C@@H](C[C@H](O[C@@H]5O[C@H](CO)[C@@H](O)[C@H](O)[C@H]5O)C(=O)C4(C)C)[C@]3(CO)C(=O)C[C@]12C
5. CC(=O)OC(C)(C)CCC(=O)[C@](C)(O)[C@H]1[C@H](O)C[C@@]2(C)[C@@H]3CC=C4[C@@H](C[C@H](O)C(=O)C4(C)C)[C@]3(C)C(=O)C[C@]12C
6. CC(C)(O)CCC(=O)[C@](C)(O)[C@H]1[C@H](O)C[C@@]2(C)[C@@H]3CC=C4[C@@H](C[C@H](O)C(=O)C4(C)C)[C@]3(C)C(=O)C[C@]12C

["inactive", "inactive", "inactive", "inactive", "inactive", "inactive"]
